- TARGET_OR_SYSTEM: NMDA-GluN2B receptors, rhesus monkey frontal cortex homogenate (Macaca mulatta, UniProt F6T8S6)
- Construct: frontal cortex homogenate (dog and rhesus monkey); from tissue; host or cells: rhesus monkey frontal cortex homogenate
- Sequence (F6T8S6 29-1484): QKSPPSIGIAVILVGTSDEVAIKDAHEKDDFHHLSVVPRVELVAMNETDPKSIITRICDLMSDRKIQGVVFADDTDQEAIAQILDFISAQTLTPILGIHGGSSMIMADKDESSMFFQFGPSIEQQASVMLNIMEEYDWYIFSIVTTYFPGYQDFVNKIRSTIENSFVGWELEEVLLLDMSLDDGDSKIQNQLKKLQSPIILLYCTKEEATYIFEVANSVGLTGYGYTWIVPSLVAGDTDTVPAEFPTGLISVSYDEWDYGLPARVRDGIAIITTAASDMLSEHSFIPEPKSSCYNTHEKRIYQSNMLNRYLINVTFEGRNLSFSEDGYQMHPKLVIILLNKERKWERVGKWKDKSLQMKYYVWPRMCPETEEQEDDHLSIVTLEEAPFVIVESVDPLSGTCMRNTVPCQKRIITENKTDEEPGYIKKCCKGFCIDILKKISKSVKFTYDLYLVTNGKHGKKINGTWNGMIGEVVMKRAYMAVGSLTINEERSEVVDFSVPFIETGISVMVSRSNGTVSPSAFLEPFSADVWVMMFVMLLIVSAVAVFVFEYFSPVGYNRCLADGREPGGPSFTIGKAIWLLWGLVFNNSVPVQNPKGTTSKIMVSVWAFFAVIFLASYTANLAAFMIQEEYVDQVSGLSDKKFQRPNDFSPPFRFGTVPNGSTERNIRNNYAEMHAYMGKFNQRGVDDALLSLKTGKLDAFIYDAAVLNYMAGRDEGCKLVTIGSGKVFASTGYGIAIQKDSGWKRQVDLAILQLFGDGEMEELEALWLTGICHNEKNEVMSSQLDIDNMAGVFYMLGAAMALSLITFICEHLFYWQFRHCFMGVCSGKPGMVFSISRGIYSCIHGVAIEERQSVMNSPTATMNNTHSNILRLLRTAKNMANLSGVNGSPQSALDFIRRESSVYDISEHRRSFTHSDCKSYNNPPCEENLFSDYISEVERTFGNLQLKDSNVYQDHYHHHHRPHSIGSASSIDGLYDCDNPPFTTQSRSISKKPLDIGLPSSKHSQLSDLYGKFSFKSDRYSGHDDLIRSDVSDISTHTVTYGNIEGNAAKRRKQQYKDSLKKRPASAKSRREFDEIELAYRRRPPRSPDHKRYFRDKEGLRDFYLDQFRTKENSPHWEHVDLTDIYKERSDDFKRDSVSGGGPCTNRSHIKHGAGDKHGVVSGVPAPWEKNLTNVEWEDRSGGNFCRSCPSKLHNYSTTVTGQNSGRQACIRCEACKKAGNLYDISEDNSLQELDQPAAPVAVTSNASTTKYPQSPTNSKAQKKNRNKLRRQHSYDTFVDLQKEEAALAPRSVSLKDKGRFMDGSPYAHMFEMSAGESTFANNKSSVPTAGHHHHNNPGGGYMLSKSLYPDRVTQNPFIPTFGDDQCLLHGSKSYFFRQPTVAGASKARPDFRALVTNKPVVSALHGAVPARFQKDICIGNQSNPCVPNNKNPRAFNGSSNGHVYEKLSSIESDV
- ASSAY_EXPLANATION: Radioligand binding, rhesus frontal cortex homogenate
- CONDITION_DETAILS: 37° C., geometric mean
ENDPOINT_NAME: pKi
Give bare numbers, as −log10 of the molar value.

The molecule listed as Cc1ccc(COC(=O)N2CC[C@H](CNc3ncccn3)[C@H](F)C2)cc1 [Form II] has a reported pKi of 7.85

----------
- ASSAY_EXPLANATION: Repeated once-daily oral dosing with food (Days 1-7) in healthy subjects, PK and PD
- Assay type: in vivo, human
- CONDITION_DETAILS: both sexes, human, plasma, oral, 12 mg, elderly, 12 mg, Day 1; read-out: tmax, Median
ENDPOINT_NAME: Tmax (h)
Give bare numbers, in h.

The compound listed as Cc1ccc(COC(=O)N2CC[C@H](CNc3ncccn3)[C@H](F)C2)cc1 [Form II] has a reported Tmax of 1.75

----------
- ASSAY_EXPLANATION: Repeated once-daily oral dosing with food (Days 1-7) in healthy subjects, PK and PD
- Type: in vivo, human
- CONDITION_DETAILS: both sexes, human, plasma, oral, 12 mg, elderly, 12 mg, Day 1; read-out: tmax, Mean (SD)
ENDPOINT_NAME: Tmax (h)
Give bare numbers, in h.

The compound listed as Cc1ccc(COC(=O)N2CC[C@H](CNc3ncccn3)[C@H](F)C2)cc1 [Form II] has a reported Tmax of 1.93

----------
- ASSAY_EXPLANATION: Repeated once-daily oral dosing with food (Days 1-7) in healthy subjects, PK and PD
- Assay type: in vivo, human
- CONDITION_DETAILS: both sexes, human, plasma, oral, 20 mg, young subjects, 20 mg, Day 1; read-out: Vz/F, Mean (SD)
ENDPOINT_NAME: Vd/F (L)
Numbers only, in L.

The compound listed as Cc1ccc(COC(=O)N2CC[C@H](CNc3ncccn3)[C@H](F)C2)cc1 [Form II] has a reported Vd/F of 148

----------
- ASSAY_EXPLANATION: Repeated once-daily oral dosing with food (Days 1-7) in healthy subjects, PK and PD
- Format: in vivo, human
- CONDITION_DETAILS: male, human, plasma, oral, males, all doses pooled, Day 7; read-out: AUC0-24, Mean (SD)
ENDPOINT_NAME: AUC(0-t) (µg·h/mL)
Answers are plain numbers, in µg·h/mL.

The molecule listed as Cc1ccc(COC(=O)N2CC[C@H](CNc3ncccn3)[C@H](F)C2)cc1 [Form II] has a reported AUC(0-t) of 3.75

----------
- ASSAY_EXPLANATION: Repeated once-daily oral dosing with food (Days 1-7) in healthy subjects, PK and PD
- Type: in vivo, human
- CONDITION_DETAILS: both sexes, human, plasma, oral, 16 mg, young subjects, 16 mg, Day 7; read-out: AUClast, Mean (SD)
- Description: A randomized, double-blind, placebo-controlled, parallel-dose group in-patient study is conducted to investigate the pharmacodynamic (PD) effects of crystalline Form II of Compound (I) in healthy subjects. The study is designed as a three-part, sequential study. […]
ENDPOINT_NAME: AUC(0-t) (ng·h/mL)
One number for each entry, in ng·h/mL.

The compound listed as Cc1ccc(COC(=O)N2CC[C@H](CNc3ncccn3)[C@H](F)C2)cc1 [Form II] has a reported AUC(0-t) of 7450
